Entry source: patent US10703723B2

assay: appearance of test formulations / solubility over time in PBC buffer (pH 7.4); format: physicochemical; details: 0.5% CMC in phosphate buffer (pH 7.4), t = 4 h
value.kind: Appearance of test formulations t = 4 h

CCN(CC)C(=O)COC(=O)c1cc(N=Nc2ccc(S(=O)(=O)Nc3ccccn3)cc2)ccc1O
clear solution
CCN(C)C(=O)COC(=O)c1cc(/N=N/c2ccc(S(=O)(=O)Nc3ccccn3)cc2)ccc1O
clear solution
CN(C)C(=O)COC(=O)c1cc(/N=N/c2ccc(S(=O)(=O)Nc3ccccn3)cc2)ccc1O
milky
O=C(COC(=O)c1cc(N=Nc2ccc(S(=O)(=O)Nc3ccccn3)cc2)ccc1O)NCC1CC1
milky
O=C(OCC(=O)N1CCOCC1)c1cc(/N=N/c2ccc(S(=O)(=O)Nc3ccccn3)cc2)ccc1O
clear solution

Count: 3. Required value per item: Appearance of test formulations t = 4 h.
1. CC(C)NC(=O)COC(=O)c1cc(N=Nc2ccc(S(=O)(=O)Nc3ccccn3)cc2)ccc1O
2. COCCNC(=O)COC(=O)c1cc(N=Nc2ccc(S(=O)(=O)Nc3ccccn3)cc2)ccc1O
3. CNC(=O)COC(=O)c1cc(/N=N/c2ccc(S(=O)(=O)Nc3ccccn3)cc2)ccc1O

Marked response:
1: clear solution; 2: clear solution; 3: clear solution

---

experiment: in vivo; details: rat, po, 40 mg/kg
value.kind: Ratio SP to SSZ for AUC0-4 h (h*nmol/L)

Solved cases (3 shown):
COCCNC(=O)COC(=O)c1cc(N=Nc2ccc(S(=O)(=O)Nc3ccccn3)cc2)ccc1O
8:1
CCN(CC)C(=O)COC(=O)c1cc(N=Nc2ccc(S(=O)(=O)Nc3ccccn3)cc2)ccc1O
8:1
O=C(COC(=O)c1cc(N=Nc2ccc(S(=O)(=O)Nc3ccccn3)cc2)ccc1O)NCC1CC1
6:1

Turning now to a further record.
Exam item: Requested read-out: Ratio SP to SSZ for AUC0-4 h (h*nmol/L). Entry: CC(C)NC(=O)COC(=O)c1cc(N=Nc2ccc(S(=O)(=O)Nc3ccccn3)cc2)ccc1O
Marked response: 2:1

---

assay: in vivo; conditions: rat, po, 40 mg/kg
Would you kindly list Ratio SP to SSZ for Cmax (nmol/L) for each of these molecules?

Could I get Ratio SP to SSZ for Cmax (nmol/L) for every one of these entries?
1. O=C(COC(=O)c1cc(N=Nc2ccc(S(=O)(=O)Nc3ccccn3)cc2)ccc1O)NCC1CC1 [Compound 2f]
2. CC(C)NC(=O)COC(=O)c1cc(N=Nc2ccc(S(=O)(=O)Nc3ccccn3)cc2)ccc1O [Compound 2d]
3. COCCNC(=O)COC(=O)c1cc(N=Nc2ccc(S(=O)(=O)Nc3ccccn3)cc2)ccc1O [Compound 2h]
4. CCN(CC)C(=O)COC(=O)c1cc(N=Nc2ccc(S(=O)(=O)Nc3ccccn3)cc2)ccc1O [Compound 3b]

Marked response:
1: 2:1; 2: 2:1; 3: 6:1; 4: 5:1

---

Assign solubility at 24 h to each entry below.
test: solubility in de-ionized water at rt after 24 h; conditions: thermodynamic from solid

CN(C)C(=O)COC(=O)c1cc(/N=N/c2ccc(S(=O)(=O)Nc3ccccn3)cc2)ccc1O [Compound 3a]
> 500 µg/mL

Look up solubility at 24 h for the entries below, preserving their order.
1. CNC(=O)COC(=O)c1cc(/N=N/c2ccc(S(=O)(=O)Nc3ccccn3)cc2)ccc1O [Compound 2a]
2. O=C(OCC(=O)N1CCOCC1)c1cc(/N=N/c2ccc(S(=O)(=O)Nc3ccccn3)cc2)ccc1O [Compound 1a]
3. CCN(C)C(=O)COC(=O)c1cc(/N=N/c2ccc(S(=O)(=O)Nc3ccccn3)cc2)ccc1O [Compound 4a]

Marked response:
1. > 5000 µg/mL
2. > 5000 µg/mL
3. > 1000 µg/mL
